system: MDA-MB-231 (triple-negative breast adenocarcinoma); assay: MTT cell viability assay, MDA-MB-231; format: cell-based, Human; conditions: MTT, 24 h of incubation; read-out: IC50 ± SD on MDA-MB-231
Below, each entry is listed alongside its reported IC50.

// worked examples, IC50 included
> print(dat)
                                   compound  readout.value
1  Cc1ccc(C(C)C)cc1.[Cl-].[O-]n1ccccc1=S.[Ru+2] [Compound 1, [(η^6-cymene)(Ru)(pyrithionato)Cl]]       > 100 µM
2  C1=CC2=[S][Ru+]([P](c3ccccc3)(c3ccccc3)c3ccccc3)[O]N2C=C1.Cc1ccc(C(C)C)cc1.F[P-](F)(F)(F)(F)F        10.8 µM

Which IC50 value is on record for "C1=CC2=[S][Ru+]([As](c3ccccc3)(c3ccccc3)c3ccccc3)[O]N2C=C1.Cc1ccc(C(C)C)cc1.F[P-](F)(F)(F)(F)F" ?
35.8 µM

---

target: Glutathione S-transferase from horse liver (GST); assay: GST inhibition assay; details: substrate 1-chloro-2,4-dinitrobenzene, pH 6.5, 25 °C
pIC50 reference
The value called pIC50 is obtained by taking minus log10 of the concentration in mol/L.

A selection of reference data follows.
> print(dat)
                                   molecule  property  readout.value
1  Cc1ccc(C(C)C)cc1.[Cl-].[O-]n1ccccc1=S.[Ru+2] [Compound 1, [(η^6-cymene)(Ru)(pyrithionato)Cl]]     pIC50           5.50
2  CCO[P](OCC)(OCC)[Ru+]1[O]N2C=CC=CC2=[S]1.Cc1ccc(C(C)C)cc1.F[P-](F)(F)(F)(F)F [Compound 4]     pIC50           4.23
3  C1=CC2=[S][Ru+]([As](c3ccccc3)(c3ccccc3)c3ccccc3)[O]N2C=C1.Cc1ccc(C(C)C)cc1.F[P-](F)(F)(F)(F)F [Compound 8]     pIC50           5.67
4  C1=CC2=[S][Ru+]([P](Oc3ccccc3)(Oc3ccccc3)Oc3ccccc3)[O]N2C=C1.Cc1ccc(C(C)C)cc1.F[P-](F)(F)(F)(F)F [Compound 7]     pIC50           5.54

Turning to the following molecule.
Query for Glutathione S-transferase from horse liver (GST): what pIC50 does the record show for C1=CC2=[S][Ru+]([P](c3ccccc3)(c3ccccc3)c3ccccc3)[O]N2C=C1.Cc1ccc(C(C)C)cc1.F[P-](F)(F)(F)(F)F [Compound 6] ?
4.93

---

target: Glutathione S-transferase from horse liver (GST); experiment: GST inhibition assay; format: biochemical; details: Dixon plots, substrate 200, 400, 800 μM
Each entry below carries its recorded pKi.
pKi is defined as minus the log10 of a concentration measured in mol/L.

Take a look at these entries with their results.
> print(dat)
                                   compound  readout.value
1  C1=CC2=[S][Ru+]([As](c3ccccc3)(c3ccccc3)c3ccccc3)[O]N2C=C1.Cc1ccc(C(C)C)cc1.F[P-](F)(F)(F)(F)F [Compound 8]           6.13
2  Cc1ccc(C(C)C)cc1.[Cl-].[O-]n1ccccc1=S.[Ru+2] [Compound 1, [(η^6-cymene)(Ru)(pyrithionato)Cl]]           6.12
3  C1=CC2=[S][Ru+]([P](Oc3ccccc3)(Oc3ccccc3)Oc3ccccc3)[O]N2C=C1.Cc1ccc(C(C)C)cc1.F[P-](F)(F)(F)(F)F [Compound 7]           5.44

Attention now shifts to the item below.
Requested field: pKi. Item: C1=CC2=[S][Ru+]([P](c3ccccc3)(c3ccccc3)c3ccccc3)[O]N2C=C1.Cc1ccc(C(C)C)cc1.F[P-](F)(F)(F)(F)F [Compound 6]
5.89

---

tested on: MDA-MB-231 (triple-negative breast adenocarcinoma); test: MTT cell viability assay, MDA-MB-231; assay type: cell-based, Human; conditions: MTT, 24 h of incubation; read-out: IC50 ± SD on MDA-MB-231
property: IC50 (µM)
Write the answer as a number in µM, unit excluded.

compound	target-or-test-system	readout-value
N.N.[Cl][Pt][Cl] [Cisplatin, reference compound]	MDA-MB-231 (triple-negative breast adenocarcinoma)	131

Turning now to a further record.
Request body: readout IC50, system MDA-MB-231 (triple-negative breast adenocarcinoma), query C1=CC2=[S][Ru+]([P](Oc3ccccc3)(Oc3ccccc3)Oc3ccccc3)[O]N2C=C1.Cc1ccc(C(C)C)cc1.F[P-](F)(F)(F)(F)F [Compound 7] . Return the value.
18

Cited source: paper PMC10058425
